Hi there, I'd appreciate the recorded ELISA_avg for every entry that follows.
measurement_target: T1, BCMA (Homo sapiens (Human), UniProt Q02223 1-54, limits assumed)
T1 sequence: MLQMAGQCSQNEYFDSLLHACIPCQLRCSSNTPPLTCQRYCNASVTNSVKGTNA
assay_remarks: ELISA, format not described
Set-up: unit not given here
Provide a numeric answer; units are not to be included.

Enquiry: Determine from records and report ELISA_avg for D-domain SEQ ID NO: 216 (designed binder) MGSWDEFEFRLGALRWRLIALGGSEAELAAFEKEIAAFESELQAYKGKGNPEVEYLRFGAAHIRHILQAYRHN
Return: 9.2

Enquiry: Provide ELISA_avg value for the following binder: D-domain SEQ ID NO: 275 (designed binder) MGSWVEFKYHLAVIKFTLEALGGSEAELADFEEEIARFEMILQQYKGKGNPEVEALRKEAAAIRDELQAYRHN
Return: 6.92

Enquiry: Given D-domain SEQ ID NO: 283 (designed binder) MGSWYNFKYHLAIIKWWLEALGGSEAELADFEHYIADFERNLQEYKGKGNPEVEALRKEAAAIRDELQAYRHN , respond with its ELISA_avg.
Return: 8.63

Enquiry: Provide one value: measured ELISA_avg of D-domain SEQ ID NO: 154 (designed binder) MGSWIEFDTRLAAIVHRLRALGGSEAELAAFEKEIAAFESELQAYKGKGNPEVELLRDKAAYIRYMLQAYRHN
Return: 13.9

Enquiry: Return reported ELISA_avg. Input binder: D-domain SEQ ID NO: 127 (designed binder) MGSWFEFQYRLEAIFYRLLALGGSEAELAAFEKEIAAFESELQAYKGKGKPEVEELRVRAALIRHLLQAYRHN
Return: 17.3

Enquiry: Using the record for D-domain SEQ ID NO: 307 (designed binder) MGSWVYFKHGLAVIKMRLEALGGSEAELADFETWIAQFEMTLQEYKGKGNPEVEALRKEAAAIRDELQAYRHN , state its measured ELISA_avg.
Return: 21.4

Enquiry: Identify measured ELISA_avg corresponding to D-domain SEQ ID NO: 236 (designed binder) MGSWFQFKHRLAIIKWQLEALGGSEAELAWFEQWIADFEHQLQHYKGKGNPEVEALRKEAAAIRDELQAYRHN
Return: 10.4

Enquiry: Output measured ELISA_avg for this item: D-domain SEQ ID NO: 268 (designed binder) MGSWNTFKYHLAVIKFMLEALGGSEAELAFFEQWIAEFEVTLQSYKGKGNPEVEALRKEAAAIRDELQAYRHN
Return: 10.6

Enquiry: Output measured ELISA_avg for this item: D-domain SEQ ID NO: 302 (designed binder) MGSWGYFKYGLATIKHRLEALGGSEAELADFELWIAKFEEQLQVYKGKGNPEVEALRKEAAAIRDELQAYRHN
Return: 14

Enquiry: Return the recorded ELISA_avg value; entry: D-domain SEQ ID NO: 315 (designed binder) MGSWAYFKYGLAVIKLHLEALGGSEAELADFERYIAEFEYELQAYKGKGNPEVEALRKEAAAIRDELQAYRHN
Return: 13.4
